SYSTEM UNDER TEST: T1, human epidermal growth factor receptor 3 (HER3) (human, UniProt P21860 20-1342)
T1 construct: whole, on cells; also called ErbB3; Erbb3
PROCEDURE TEXT: flow cytometry on A431 cells
QUANTITY KIND: EC50 (µg/mL)
Give bare numbers, in µg/mL.

// worked examples, EC50 included
| BINDER | EC50 / µg/mL |
| --- | --- |
| ADC 22B6-B-01 (antibody, human IgG1, kappa, V domains shown, drug-linker B-01 on a cysteine sulfhydryl group; LC-DAR1 ratio 0.999; drug-linker B-01 on cysteine sulfhydryl groups after TCEP reduction; mainly 3 per heavy chain (HC-DAR3 ratio 0.933)) VH: EVHLVESGGGVVQPGRSLRLSCATSGFTFRSYGMHWVRQAPGKGLEWVAVIWYDGSNKYYADSVKGRFTISRDISKNTLYLQMNSLTAEDTAVYYCARYYYDSNGYYDAFDIWGQGTMVTVSS VL: DIQLTQSPSFLSASVGDRVTITCRASQGISNYLAWYQQKPGKAPKLLIFAASTLQSGVPSRFSGSGSGAEFTLTISSLEPEDFATYYCQQLNSYPITFGQGTRLEIKR | 0.0328 |
| ADC 47A3-A-07-A (antibody, human IgG1, kappa, V domains shown, drug-linker A-07-A on a cysteine sulfhydryl group; LC-DAR1 ratio 0.820; drug-linker A-07-A on cysteine sulfhydryl groups after TCEP reduction; HC-DAR3 ratio 0.760, HC-DAR0 ratio 0.222) VH: EVQLQESGPGLVKPSQTLSLTCAISGDSVSSSQSTWNWIRQSPSRGLEWLGRTFYRSRWYNDYALSMKSRITINPDTSKNQFSLQLNPVTPEDTAVYYCARDTYYYGSGGFDYWGQGSRVTVSS VL: DIQMTQSPSTLSASVGDRVTITCRASQSLSRWLAWYQQKPEKAPKLLIYKASSLESGVPSRFSGSGSGTEFTLTISTLQPDDFATYYCQQYKNYYSFGQGTKLEIKR | 0.0656 |
| ADC 22B6-A-01 (antibody, human IgG1, kappa, V domains shown, drug-linker A-01 on a cysteine sulfhydryl group; LC-DAR1 ratio 0.990; drug-linker A-01 on cysteine sulfhydryl groups after TCEP reduction; mainly 3 per heavy chain (HC-DAR3 ratio 0.981)) VH: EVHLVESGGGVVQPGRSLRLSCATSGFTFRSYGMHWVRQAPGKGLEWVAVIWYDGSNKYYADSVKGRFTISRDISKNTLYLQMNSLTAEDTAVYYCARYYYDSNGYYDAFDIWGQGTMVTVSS VL: DIQLTQSPSFLSASVGDRVTITCRASQGISNYLAWYQQKPGKAPKLLIFAASTLQSGVPSRFSGSGSGAEFTLTISSLEPEDFATYYCQQLNSYPITFGQGTRLEIKR | 0.0307 |

Now let's try a different one.
What does the data say about its EC50? Entry: ADC 100H7-A-07-A (antibody, human IgG1, kappa, V domains shown, drug-linker A-07-A on a cysteine sulfhydryl group; LC-DAR1 ratio 1.000; drug-linker A-07-A on cysteine sulfhydryl groups after TCEP reduction; mainly 3 per heavy chain (HC-DAR3 ratio 0.989)) VH: EVQLVESGGGVVLPGRSLRLSCAASGFTFSRNAMHWVRQAPGKGLEWVAVIWHDGSNKYYGDSVKGRFTISRDNSKNTLYLQMDSLTAEDTAVYYCARDRGASDFRGQGTLVTVSS VL: DIQMTQSPSTLSASVGDRVTITCRASQSINNWLAWYQQKPEKAPKLLIYKASSLESGVPSRFSGSGSGTEFTLTISSLQPDDFATYYCQQYNSYSLTFGGGTKVEIKR 0.266
